Test: Contact angles by tilting plane method (sessile drop on tilted surface)
Type: physicochemical
Settings: sessile drop of water or buffered aqueous medium (50 mM sodium phosphate, pH 6.8) on tilted surface of the substance
Protocol: The tilting plane method of measuring contact angles involves slowly tilting a surface or plane of a substance the contact angle of which is to be determined until a sessile drop on the plane begins to move in the downhill direction. […] The images that show the shapes of the liquid drop just prior to it starting to run down the wafer are analyzed and the contact angles measured. […]
experimentalReadout: advancing contact angle

                                   compound      experimentalreadout          datavalue
0  O=C1c2ccccc2CCC1Cc1c[nH]c(=S)[nH]1 (stereo not shown) [Compound I]  advancing contact angle  greater than 90 °
1  Cc1cccc([C@@H](C)c2c[nH]c(=S)[nH]2)c1C [Compound IV]  advancing contact angle  greater than 90 °
2  O=c1[nH]cc(CC2Cc3ccc(F)cc3C2)[nH]1 (stereo not shown) [Compound II]  advancing contact angle  greater than 90 °
3  S=c1[nH]cc(CC2CC=CC2)[nH]1 [Compound III]  advancing contact angle              116 °

* * *

test: Contact angles by tilting plane method (sessile drop on tilted surface); format: physicochemical; settings: sessile drop of water or buffered aqueous medium (50 mM sodium phosphate, pH 6.8) on tilted surface of the substance
experimentalReadout: receding contact angle

                                   compound     experimentalreadout          datavalue
0                S=c1[nH]cc(CC2CC=CC2)[nH]1  receding contact angle               73 °
1  O=C1c2ccccc2CCC1Cc1c[nH]c(=S)[nH]1 (stereo not shown)  receding contact angle  greater than 45 °
2  O=c1[nH]cc(CC2Cc3ccc(F)cc3C2)[nH]1 (stereo not shown)  receding contact angle  greater than 45 °
3    Cc1cccc([C@@H](C)c2c[nH]c(=S)[nH]2)c1C  receding contact angle  greater than 45 °
